Every entry's value here was drawn from PubChem BioAssay AID1919017.

# System: SW1271 complex spheroids with HUVEC/MSC, growth, % test/control
# experimentNotes: Anticancer human tumor SW1271 cell line growth inhibition [AhR];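 note: spheroids exposed to agents for 7 days before readout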
# cond: second compound 0.316 µM; first compound 0.0316 µM; stronger effect = lower value
endpointLabel: viability, T/C (%)
Numbers only, in %.

# count of solved cases: 5
[[record]]
compound = "CC1COCCN1c1cc(C2(S(C)(=N)=O)CC2)nc(-c2ccnc3[nH]ccc23)n1 (stereo unspecified) + Cc1ccccc1N=Nc1ccc(NC(=O)c2ccnn2C)c(C)c1"
endpointlabel = "viability, T/C"
readoutvalue = 100

[[record]]
compound = "COc1cc(C2c3cc4c(cc3C(OC3OC5COC(C)OC5C(O)C3O)C3COC(=O)C23)OCO4)cc(OC)c1O (stereo unspecified) + Cc1ccccc1N=Nc1ccc(NC(=O)c2ccnn2C)c(C)c1"
endpointlabel = "viability, T/C"
readoutvalue = 54.1

[[record]]
compound = "COc1cc(Nc2ncc3c(n2)-c2ccc(Cl)cc2C(c2c(F)cccc2OC)=NC3)ccc1C(=O)O + CC(CO)NC(=O)c1cc(-c2ccc(Cl)cc2)nn(-c2cnn(C)c2)c1=O"
endpointlabel = "viability, T/C"
readoutvalue = 61.6

[[record]]
compound = "CC1COCCN1c1cc(C2(S(C)(=N)=O)CC2)nc(-c2ccnc3[nH]ccc23)n1 (stereo unspecified) + Cc1cncc(-c2nc(NCCc3c[nH]c4ccccc34)c3ncn(C(C)C)c3n2)c1"
endpointlabel = "viability, T/C"
readoutvalue = 85.5

[[record]]
compound = "O=C(C=Cc1cccc(S(=O)(=O)Nc2ccccc2)c1)NO + CC(CO)NC(=O)c1cc(-c2ccc(Cl)cc2)nn(-c2cnn(C)c2)c1=O"
endpointlabel = "viability, T/C"
readoutvalue = 92.4


Could I get viability, T/C for every one of these entries?
1. CC(C)c1c(-c2ccccc2)nc2c(C#N)c[nH]n2c1=O + Cc1ccccc1N=Nc1ccc(NC(=O)c2ccnn2C)c(C)c1
2. Nc1ncn(C2CC(O)C(CO)O2)c(=O)n1 (stereo unspecified) + Cc1ccccc1N=Nc1ccc(NC(=O)c2ccnn2C)c(C)c1
3. Nc1ccccc1NC(=O)c1ccc(CNC(=O)OCc2cccnc2)cc1 + Cc1cncc(-c2nc(NCCc3c[nH]c4ccccc34)c3ncn(C(C)C)c3n2)c1
4. NS(=O)(=O)OCC1CC(n2ccc3c(NC4CCc5ccccc54)ncnc32)CC1O (stereo unspecified) + Cc1cncc(-c2nc(NCCc3c[nH]c4ccccc34)c3ncn(C(C)C)c3n2)c1
5. COc1ccc([C@@H](O)c2cc(-c3ncnc4cc(N5CCOCC5)ccc34)c(F)cc2Cl)nn1 + Cc1cncc(-c2nc(NCCc3c[nH]c4ccccc34)c3ncn(C(C)C)c3n2)c1

[102, 69, 109, 131, 87.3]

Looking up Nc1ccccc1NC(=O)c1ccc(CNC(=O)OCc2cccnc2)cc1 + CC(CO)NC(=O)c1cc(-c2ccc(Cl)cc2)nn(-c2cnn(C)c2)c1=O , I see its viability, T/C listed as 103

====

So I've got a bunch of compounds here, and I need their viability, T/C values.
# Test system: SW1271 complex spheroids with HUVEC/MSC, growth, % test/control
# experimentNotes: Anticancer human tumor SW1271 cell line growth inhibition [AhR];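 note: spheroids exposed to agents for 7 days before readout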
# cond: second compound 1 µM; first compound 10 µM; stronger effect = lower value
Numbers only, in %.

The cases that follow already have their viability, T/C on record.
[[record]]
compound = "O=C(C=Cc1cccc(S(=O)(=O)Nc2ccccc2)c1)NO + CC(CO)NC(=O)c1cc(-c2ccc(Cl)cc2)nn(-c2cnn(C)c2)c1=O"
readoutvalue = 9.03

[[record]]
compound = "COc1cc(Nc2ncc3c(n2)-c2ccc(Cl)cc2C(c2c(F)cccc2OC)=NC3)ccc1C(=O)O + CC(CO)NC(=O)c1cc(-c2ccc(Cl)cc2)nn(-c2cnn(C)c2)c1=O"
readoutvalue = 47.4

[[record]]
compound = "COc1ccc([C@@H](O)c2cc(-c3ncnc4cc(N5CCOCC5)ccc34)c(F)cc2Cl)nn1 + CC(CO)NC(=O)c1cc(-c2ccc(Cl)cc2)nn(-c2cnn(C)c2)c1=O"
readoutvalue = 29.6


Continue with the compound presented below.
Input CC1COCCN1c1cc(C2(S(C)(=N)=O)CC2)nc(-c2ccnc3[nH]ccc23)n1 (centres undefined) + CC(CO)NC(=O)c1cc(-c2ccc(Cl)cc2)nn(-c2cnn(C)c2)c1=O . Output viability, T/C: 57.1

====

I'd appreciate it if you could supply viability, T/C values for the items below.
# Tested on: SW1271 complex spheroids with HUVEC/MSC, growth, % test/control
# experimentNotes: Anticancer human tumor SW1271 cell line growth inhibition [AhR];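 note: spheroids exposed to agents for 7 days before readout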
# cond: second compound 0.316 µM; first compound 10 µM; stronger effect = lower value
Answers are plain numbers, in %.

Example cases with answers are listed next.
[[record]]
compound = "COc1ccc([C@@H](O)c2cc(-c3ncnc4cc(N5CCOCC5)ccc34)c(F)cc2Cl)nn1 + Cc1cncc(-c2nc(NCCc3c[nH]c4ccccc34)c3ncn(C(C)C)c3n2)c1"
endpointlabel = "viability, T/C"
readoutvalue = 36.9

[[record]]
compound = "CC1(C)CCC(CN2CCN(c3ccc(C(=O)NS(=O)(=O)c4ccc(NCC5CCOCC5)c([N+](=O)[O-])c4)c(Oc4cnc5[nH]ccc5c4)c3)CC2)=C(c2ccc(Cl)cc2)C1 + CC(CO)NC(=O)c1cc(-c2ccc(Cl)cc2)nn(-c2cnn(C)c2)c1=O"
endpointlabel = "viability, T/C"
readoutvalue = 78.3


Read the next record carefully.
The measured viability, T/C associated with COc1cc(Nc2ncc3c(n2)-c2ccc(Cl)cc2C(c2c(F)cccc2OC)=NC3)ccc1C(=O)O + Cc1cncc(-c2nc(NCCc3c[nH]c4ccccc34)c3ncn(C(C)C)c3n2)c1 reads 57.5

====

# Tested on: SW1271 complex spheroids with HUVEC/MSC, growth, % test/control
# experimentNotes: Anticancer human tumor SW1271 cell line growth inhibition [AhR];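 note: spheroids exposed to agents for 7 days before readout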
# cond: second compound 3.16 µM; first compound 10 µM; stronger effect = lower value
Hi there, I'd appreciate the recorded viability, T/C for every entry that follows.
Numbers only, in %.

Worked cases, viability, T/C given:
[[record]]
molecule = "CC(C)c1c(-c2ccccc2)nc2c(C#N)c[nH]n2c1=O + CC(CO)NC(=O)c1cc(-c2ccc(Cl)cc2)nn(-c2cnn(C)c2)c1=O"
endpointlabel = "viability, T/C"
unittext = "%"
readoutvalue = 76.8

[[record]]
molecule = "COc1ccc([C@@H](O)c2cc(-c3ncnc4cc(N5CCOCC5)ccc34)c(F)cc2Cl)nn1 + CC(CO)NC(=O)c1cc(-c2ccc(Cl)cc2)nn(-c2cnn(C)c2)c1=O"
endpointlabel = "viability, T/C"
unittext = "%"
readoutvalue = 36.5

[[record]]
molecule = "NS(=O)(=O)OCC1CC(n2ccc3c(NC4CCc5ccccc54)ncnc32)CC1O (stereo unspecified) + Cc1ccccc1N=Nc1ccc(NC(=O)c2ccnn2C)c(C)c1"
endpointlabel = "viability, T/C"
unittext = "%"
readoutvalue = 83.2

[[record]]
molecule = "Nc1ccccc1NC(=O)c1ccc(CNC(=O)OCc2cccnc2)cc1 + CC(CO)NC(=O)c1cc(-c2ccc(Cl)cc2)nn(-c2cnn(C)c2)c1=O"
endpointlabel = "viability, T/C"
unittext = "%"
readoutvalue = 11

[[record]]
molecule = "O=C(c1cc(Cc2n[nH]c(=O)c3ccccc23)ccc1F)N1CCN(C(=O)C2CC2)CC1 + CC(CO)NC(=O)c1cc(-c2ccc(Cl)cc2)nn(-c2cnn(C)c2)c1=O"
endpointlabel = "viability, T/C"
unittext = "%"
readoutvalue = 82.5


With those in mind, consider the next molecule.
Reported viability, T/C for CC1COCCN1c1cc(C2(S(C)(=N)=O)CC2)nc(-c2ccnc3[nH]ccc23)n1 (stereo unspecified) + CC(CO)NC(=O)c1cc(-c2ccc(Cl)cc2)nn(-c2cnn(C)c2)c1=O was 48.5

====

# Test system: SW1271 complex spheroids with HUVEC/MSC, growth, % test/control
# experimentNotes: Anticancer human tumor SW1271 cell line growth inhibition [AhR];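 note: spheroids exposed to agents for 7 days before readout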
# cond: second compound 1 µM; first compound 0.0316 µM; stronger effect = lower value
Response field label takes Criterion met when viability, T/C is strictly below 90% and Criterion not met in all other cases.

These recorded examples may help you get a feel for the data.
[[record]]
compound = "CC1COCCN1c1cc(C2(S(C)(=N)=O)CC2)nc(-c2ccnc3[nH]ccc23)n1 (stereo not drawn) + CC(CO)NC(=O)c1cc(-c2ccc(Cl)cc2)nn(-c2cnn(C)c2)c1=O"
classassignment = "Criterion met"

[[record]]
compound = "CC[C@@]1(O)C(=O)OCc2c1cc1n(c2=O)Cc2cc3c(CN(C)C)c(O)ccc3nc2-1 + Cc1cncc(-c2nc(NCCc3c[nH]c4ccccc34)c3ncn(C(C)C)c3n2)c1"
classassignment = "Criterion met"


# check: viability, T/C < 90% for COc1cccc2c1C(=O)c1c(O)c3c(c(O)c1C2=O)CC(O)(C(=O)CO)CC3OC1CC(N)C(O)C(C)O1 (stereo not drawn) + Cc1ccccc1N=Nc1ccc(NC(=O)c2ccnn2C)c(C)c1
Criterion met

Quick check: viability, T/C of COc1ccc([C@@H](O)c2cc(-c3ncnc4cc(N5CCOCC5)ccc34)c(F)cc2Cl)nn1 + Cc1ccccc1N=Nc1ccc(NC(=O)c2ccnn2C)c(C)c1 under 90%?
Criterion not met

# strict comparison: is reported viability, T/C < 90%? input = COc1cccc2c1C(=O)c1c(O)c3c(c(O)c1C2=O)CC(O)(C(=O)CO)CC3OC1CC(N)C(O)C(C)O1 (stereo not drawn) + CC(CO)NC(=O)c1cc(-c2ccc(Cl)cc2)nn(-c2cnn(C)c2)c1=O
Criterion met

# check: viability, T/C < 90% for Nc1ccccc1NC(=O)c1ccc(CNC(=O)OCc2cccnc2)cc1 + Cc1cncc(-c2nc(NCCc3c[nH]c4ccccc34)c3ncn(C(C)C)c3n2)c1
Criterion not met
